- Test system: HCC-2998 colon
- ASSAY_METHOD_TEXT: NCI tumour cell line growth inhibition, 48 h
PROPERTY_MEASURED: TGI

Please review the entries below; each comes with its answer.
{"columns": ["COMPOUND", "TGI"],
 "data": [
  ["COc1ccc(SC2c3ccc(C)cc3Oc3nc(N)c(C#N)c(N)c32)cc1 (stereo unspecified)", "3.19 µM"],
  ["O=c1cc(-c2ccccc2)[nH]c2c(Cl)cccc12", "> 100 µM"],
  ["CCOC(=O)c1cc2c(cn1)[nH]c1cccc(N)c12", "> 100 µM"]
]}

Each of the following entries comes with a recorded value; kindly state TGI for each.
1. COc1ccc(/C(Cl)=C(\C=O)c2ccccc2)cc1OC
2. O=C(Nc1ccc2[nH]c(C(=O)N3CC(CCl)c4c3cc([N+](=O)[O-])c3ccccc43)cc2c1)c1cc2ccccc2o1 (stereo unspecified)
3. O=c1oc2c/c(=C\c3ccccc3)c(=O)c3cccc1c3-2

Solution:
["> 100 µM", "> 1100 µM", "> 100 µM"]

Hi there! I need TGI for each item below, if you can.
1. N#Cc1ccc(Nc2cnc3ccc(N)cc3n2)cc1
2. CSC1(SC)N2Cc3ccccc3N=C2C1(c1ccccc1)c1ccccc1
3. C[C@@H](NC(=O)[C@@H](CC(=O)N1CCC(N2CCCCC2)CC1)N1C(=O)[C@@H](N2C(=O)OC[C@@H]2c2ccccc2)[C@H]1/C=C/c1cccc(Cl)c1)c1ccccc1
4. S=c1nc2sc3c(c2c(Nc2ccc(Br)cc2)[nH]1)CCN(N1CCc2c(sc4nc(=S)[nH]c(Nc5ccc(Br)cc5)c24)C1)C3
5. COc1c2c(c(CC=C(C)C)c3oc(=O)c(-c4ccc(O)cc4)c(O)c13)OC(C)(C)C=C2
6. COC(=O)c1ccc(NC(=O)c2cc(OC)c(OC)c(OC)c2)cc1
7. COc1c(-c2cccs2)oc2c(CC(=O)O)cccc2c1=O

Solution:
1. > 100 µM
2. 23.2 µM
3. 4.08 µM
4. > 50 µM
5. 48.1 µM
6. 6.67 µM
7. > 100 µM

For each of the compounds below, note its TGI.
1. Cc1oncc1NC1=CC(=O)C(=O)c2ccccc21
2. COc1ccc2oc(=Nc3ccc(F)cc3)c(C(N)=O)cc2c1

Solution:
["33.4 µM", "> 100 µM"]

Lab book: TGI of O=C1c2cc(-c3ccccc3)ccc2-c2c1c1ccc([N+](=O)[O-])cc1c(=O)n2CCCBr noted as > 50 µM

* * *

- Test system: SK-MEL-28 melanoma
- ASSAY_METHOD_TEXT: NCI tumour cell line growth inhibition, 48 h
PROPERTY_MEASURED: TGI

These recorded examples may help you get a feel for the data.
{"columns": ["MOLECULE", "RECORDED_MEASUREMENT"],
 "data": [
  ["COc1cc2cc3c4c(cc(OC)c(OC)c4c2cc1OC)CCN3C(=O)N(C)C", "> 100 µM"],
  ["COc1ccc2c3c(c4ccccc4cc13)C(=O)N(CCN(C)CCN)C2=O", "2.48 µM"],
  ["O=C(Cn1c(=O)oc2ccc(C(=O)c3ccccc3Cl)cc21)c1ccc([N+](=O)[O-])cc1", "> 100 µM"],
  ["CN1C(=O)C(=Cc2cn(Cc3ccccc3)c3ccccc23)C(=O)N(C)C1=O", "> 100 µM"],
  ["Cn1cc(-c2nc(-c3c[nH]c4ccncc34)cs2)c2cc(F)ccc21", "3.04 µM"]
]}

# batch size: 2; output TGI per entry
1. Nc1nn(CC(O)CO)c(=O)s1 (stereo not drawn)
2. CC(C)N1CCC2(CC1)NNc1ncccc1-n1cccc12

Solution:
1. 9.86 µM
2. > 100 µM

For each of the molecules below, state TGI.
1. CCCCCCCCCCCCCCCCCCOc1ccc(/C=C/C2=[N+](CCCl)CCO2)cc1
2. CCCCCCCCC(O)C#CC(N)=O (stereo not drawn)
3. O=C(O)c1ccc([S-])cc1.[Au+].c1ccc(CN2[CH-]N(Cc3ccccc3)C(c3ccccc3)=C2c2ccccc2)cc1
4. CC1(C)OCC(COC(=O)NCn2cc(-c3ccccc3)nn2)O1 (stereo not drawn)
5. COc1ccc2nc(NCN3C(=O)c4ccccc4C3=O)sc2c1
6. CC(C)=CCCC1(Sc2ccccc2)C(=O)OCC1C=C(C)C (stereo not drawn)
7. O=c1oc(-c2ccccc2)cc2cccc(O)c12
8. Nc1nc2ccc3[nH]ncc3c2c2c1CCCC2

Solution:
1. > 100 µM
2. 31.8 µM
3. 1.71 µM
4. > 100 µM
5. > 100 µM
6. > 100 µM
7. > 100 µM
8. 4.33 µM

Each molecule below has a recorded value; state its TGI.
1. CC(C)(C)c1cc(/C=C/C(=O)CC(=O)/C=C/c2cc(C(C)(C)C)c(O)c(C(C)(C)C)c2)cc(C(C)(C)C)c1O
2. Clc1ccc(/C=N/Nc2nnc3c4ccccc4c4ncccc4c3n2)cc1
3. CCN(CC)CCCC(C)Nc1c2ccc(Cl)cc2nc2cc(OC)c(OC)cc12 (stereo not drawn)
4. O=[P+](O)c1cc2ccccc2c2ccccc12
5. CNC(=O)c1ccccc1[S+]1c2cccc3cccc(c23)C(=O)N1C (stereo not drawn)
6. CCO/C=C1\N=C(C(Cl)c2ccccc2)OC1=O (stereo not drawn)
7. Clc1cccc(N2CCN(CCN3CCc4c([nH]c5ccccc45)C3c3cccnc3)CC2)c1 (stereo not drawn)
8. CN(C)CCCNc1cnc2cc3ccccc3cc2n1

Solution:
1. > 50 µM
2. > 10 µM
3. 3.37 µM
4. > 100 µM
5. > 100 µM
6. > 100 µM
7. > 100 µM
8. 81.5 µM

// each molecule listed below needs its TGI
1. N#Cc1ccc(C2C3=C(CCCC3=O)OC3=C2C(=O)c2ccccc2C3=O)cc1 (stereo not drawn)
2. O=C1C(Cl)=C(Nc2cccc(O)c2)C(=O)N1Cc1ccc(Cl)cc1
3. Cc1cc([N+](=O)[O-])ccc1NS(=O)(=O)c1cc(Cl)ccc1Cl
4. CN(C)C(=S)/N=c1\ss/c(=N\C(=S)N(C)C)n1-c1ccc(Cl)cc1
5. CC(=O)NC(C)c1ccc(N=NN2CCCC2)cc1 (stereo not drawn)
6. COc1ccc2oc(=Nc3ccc(F)cc3)c(C(N)=O)cc2c1

Solution:
1. 3.3 µM
2. 23 µM
3. > 94.6 µM
4. > 100 µM
5. > 100 µM
6. > 100 µM

* * *

- Test system: MCF7 breast
- ASSAY_METHOD_TEXT: NCI tumour cell line growth inhibition, 48 h
PROPERTY_MEASURED: TGI

Example entries and their recorded answers appear below.
{"columns": ["MOLECULE", "TGI"],
 "data": [
  ["CCOC(=O)Cn1nnc2cc(Nc3nc4ccccc4nc3C(=O)OCC)ccc21", "> 100 µM"],
  ["COc1c(-c2cccs2)oc2c(CC(=O)O)cccc2c1=O", "> 100 µM"],
  ["CC(=O)OCc1ccc(O)c(C=O)c1", "> 100 µM"],
  ["S=c1nc2sc3c(c2c(Nc2ccc(Br)cc2)[nH]1)CCN(N1CCc2c(sc4nc(=S)[nH]c(Nc5ccc(Br)cc5)c24)C1)C3", "> 50 µM"],
  ["COc1ccc(-c2cn(-c3cccc(C(=O)/C=C/c4ccc(O)c(OC)c4)c3)c(=O)[nH]2)cc1", "22 µM"],
  ["CN(C)CCNC(=O)c1cccc2[nH]c(-c3ccncc3)nc12", "> 30.8 µM"],
  ["N#C/C(=C\\Nc1ccccn1)C(=O)c1ccco1", "> 100 µM"],
  ["CCCCC1(N=[N+]=[N-])C(=O)C2C=CC=C3c4ccccc4N(C1=O)C32 (stereo not given)", "28.1 µM"],
  ["CN(C)CCCNc1cnc2cc3ccccc3cc2n1", "44.8 µM"],
  ["Cc1cc(Oc2cnc(=O)[nH]c2)cs1", "> 100 µM"]
]}

Provide each entry's TGI from the list below.
1. COc1cc(/C=C2\N=C(C)N(n3c(-c4ccccc4)nc4ccccc4c3=O)C2=O)cc(OC)c1OC
2. Cc1cc([N+](=O)[O-])ccc1NS(=O)(=O)c1cc(Cl)ccc1Cl

Solution:
1: > 100 µM; 2: > 49.4 µM

* * *

- System: 786-0 renal
- ASSAY_METHOD_TEXT: NCI tumour cell line growth inhibition, 48 h
PROPERTY_MEASURED: TGI

{"columns": ["COMPOUND", "TGI"],
 "data": [
  ["Cc1[nH]c(=O)nc2nc3ccc(Cl)cc3c(NC(C)(CO)CO)c12", "> 100 µM"]
]}

For each of the compounds below, note its TGI.
1. O=C(O)C1C(=O)Oc2c(cccc2[N+](=O)[O-])C1O (stereo not given)
2. COC(=O)c1ccc(NC(=O)c2cc(OC)c(OC)c(OC)c2)cc1
3. O=C(O)c1ccc2c3c(ncnc13)-c1ccccc1C2=O
4. COC(=O)[C@@]12OC[C@]34C([C@@H](O)C1O)[C@@]1(C)CC(=O)C(O)=C(C)C1C[C@H]3OC(=O)[C@H](OC(=O)/C=C(/c1ccccc1)C(F)(F)F)[C@H]42 (stereo not given in full)

Solution:
> 100 µM
> 100 µM
> 100 µM
> 25 µM
